assay: yeast display, Sf9 membrane polyspecificity reagent, FACS + sequencing; frameworks hold sequencing errors
READOUT LABEL: polyreactivity (PSR sort gate)

// below: answered sequences
| SEQUENCE RECORD | polyreactivity (PSR sort gate) |
| --- | --- |
| QVQLVESGGGLVQGGGSLRLSCAASGSIFSTYVMGWYRQGPGKERELVAAISRRGGSTYYADSVKGRFTISRDNAKNTVYLQMNSLNPADTAVYYCAADGTVGRRDYWGQGTQVTVSS | high polyreactivity |
| QVQLVESGGGLVQAGGSLRLSCAASGSIFAYYAMGWYRQAPGKERELVAGIRISGGRTYYADSVKGRFTISRDNAKNTVYLQMNSLKPEDTAVYYCNARWRGFRTGAGDYWGQGTQVTVSS | high polyreactivity |
| QVQLVESGGGLVQAGGSLRLSCAASGSNFPINAMGWYRQAPGKERELVAAISWRTGSTNYADSVKGRFTISRDNAMNTVYVQMNSLKPEDTAVFYCAASYATTRQRWLDYWGQGTQVTVSS | high polyreactivity |
| QVQLVESGGGLVQAGGSLPLSCAASGSIFMTYAIGWYRQAPGKERELVAAIRDSGDRTYYADSVKGRFTISRDNAKNTVYLQINSLKPEDTAVYYCNARWQEALKYDYWGQGTQVTVSS | low polyreactivity |

Here's the next entry for you.
Note to self: polyreactivity (PSR sort gate) recorded for QVQLVESGGGLVQAGGSLRLSCAASGSIFYDNAMGWSRQAPGKERELVASIRWSGDSTYYADSVKGRFTISRDNAKNTVYLQMNSLKPEDTAVYYCAADPVEPYFTAIAYDYWGQGTQVTVSS was low polyreactivity
